Origin of values: paper PMC5896380

For each record, write down the corresponding Relative substrate activity (rate of hydrolysis), cathepsin S.
- measuredOn: cathepsin S (Homo sapiens)
- Construct: made in house
- Sequence (P25774 115-331): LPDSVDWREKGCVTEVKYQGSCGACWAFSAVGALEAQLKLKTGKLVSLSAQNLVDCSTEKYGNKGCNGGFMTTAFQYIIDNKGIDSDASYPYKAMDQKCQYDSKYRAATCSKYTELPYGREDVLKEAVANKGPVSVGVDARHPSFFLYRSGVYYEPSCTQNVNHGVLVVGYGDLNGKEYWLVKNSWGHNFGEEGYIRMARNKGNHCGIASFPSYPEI
- procedureDetails: Substrate selectivity screening, rate of hydrolysis, cathepsin S
- Type: biochemical
- testParameters: Table S4; substrate 100µM, cathepsin 5nM; pH 5.5, 37 °C; average of at least three screenings
Non-standard residues stand in square brackets, D forms with d. *: point of attachment. Phe(3,4-Cl2) = N[C@@H](Cc1ccc(Cl)c(Cl)c1)C(=O)O; Phe(F5) = N[C@@H](Cc1c(F)c(F)c(F)c(F)c1F)C(=O)O; Phe(3,4-F2) = N[C@@H](Cc1ccc(F)c(F)c1)C(=O)O; Phe(2-Cl) = N[C@@H](Cc1ccccc1Cl)C(=O)O; Phe(4-F) = N[C@@H](Cc1ccc(F)cc1)C(=O)O; Phe(2-F) = N[C@@H](Cc1ccccc1F)C(=O)O; ACC = NC(=O)Cc1cc(=O)oc2cc(N*)ccc12; Met(O) = CS(=O)CC[C@H](N)C(=O)O; Tic = O=C(O)[C@@H]1Cc2ccccc2CN1; dOrn = NCCC[C@@H](N)C(=O)O; Orn = NCCC[C@H](N)C(=O)O
Quick note: give the figure in RFU/s, leave out the unit.

Exercise: Requested field: Relative substrate activity (rate of hydrolysis), cathepsin S. Item: Ac-[Tic][Orn][Phe(4-F)]L-{ACC} (SMILES CC(=O)N1Cc2ccccc2C[C@H]1C(=O)N[C@@H](CCCN)C(=O)N[C@@H](Cc1ccc(F)cc1)C(=O)N[C@@H](CC(C)C)C(=O)Nc1ccc2c(CC(N)=O)cc(=O)oc2c1)
Key: 4.7

Exercise: Requested field: Relative substrate activity (rate of hydrolysis), cathepsin S. Item: Ac-HRFR-{ACC} (SMILES CC(=O)N[C@@H](Cc1c[nH]cn1)C(=O)N[C@@H](CCCNC(=N)N)C(=O)N[C@@H](Cc1ccccc1)C(=O)N[C@@H](CCCNC(=N)N)C(=O)Nc1ccc2c(CC(N)=O)cc(=O)oc2c1) [reference compound]
Key: 40.3

Exercise: Requested field: Relative substrate activity (rate of hydrolysis), cathepsin S. Item: Ac-A[dK]K(Ac)R-{ACC} (SMILES CC(=O)NCCCC[C@H](NC(=O)[C@@H](CCCCN)NC(=O)[C@H](C)NC(C)=O)C(=O)N[C@@H](CCCNC(=N)N)C(=O)Nc1ccc2c(CC(N)=O)cc(=O)oc2c1)
Key: 0.0

Exercise: Requested field: Relative substrate activity (rate of hydrolysis), cathepsin S. Item: Ac-A[Orn][Phe(3,4-Cl2)]R-{ACC} (SMILES CC(=O)N[C@@H](C)C(=O)N[C@@H](CCCN)C(=O)N[C@@H](Cc1ccc(Cl)c(Cl)c1)C(=O)N[C@@H](CCCNC(=N)N)C(=O)Nc1ccc2c(CC(N)=O)cc(=O)oc2c1)
Key: 3.4

Exercise: Requested field: Relative substrate activity (rate of hydrolysis), cathepsin S. Item: Ac-H[dV][Phe(F5)]R-{ACC} (SMILES CC(=O)N[C@@H](Cc1c[nH]cn1)C(=O)N[C@@H](C(=O)N[C@@H](Cc1c(F)c(F)c(F)c(F)c1F)C(=O)N[C@@H](CCCNC(=N)N)C(=O)Nc1ccc2c(CC(N)=O)cc(=O)oc2c1)C(C)C)
Key: 0.0

Exercise: Requested field: Relative substrate activity (rate of hydrolysis), cathepsin S. Item: Ac-[Tic][dOrn][Phe(2-Cl)]K-{ACC} (SMILES CC(=O)N1Cc2ccccc2C[C@H]1C(=O)N[C@H](CCCN)C(=O)N[C@@H](Cc1ccccc1Cl)C(=O)N[C@@H](CCCCN)C(=O)Nc1ccc2c(CC(N)=O)cc(=O)oc2c1) [Tic-DArg-Phe(2-Cl)-Lys]
Key: 10.3

Exercise: Requested field: Relative substrate activity (rate of hydrolysis), cathepsin S. Item: Ac-[Met(O)][dR][Phe(2-F)]R-{ACC} (SMILES CC(=O)N[C@@H](CCS(C)=O)C(=O)N[C@H](CCCNC(=N)N)C(=O)N[C@@H](Cc1ccccc1F)C(=O)N[C@@H](CCCNC(=N)N)C(=O)Nc1ccc2c(CC(N)=O)cc(=O)oc2c1)
Key: 21.1

Exercise: Requested field: Relative substrate activity (rate of hydrolysis), cathepsin S. Item: Ac-H[dR][Phe(3,4-F2)]L-{ACC} (SMILES CC(=O)N[C@@H](Cc1c[nH]cn1)C(=O)N[C@H](CCCNC(=N)N)C(=O)N[C@@H](Cc1ccc(F)c(F)c1)C(=O)N[C@@H](CC(C)C)C(=O)Nc1ccc2c(CC(N)=O)cc(=O)oc2c1)
Key: 12.7

Exercise: Requested field: Relative substrate activity (rate of hydrolysis), cathepsin S. Item: Ac-H[dL][Phe(3,4-Cl2)]R-{ACC} (SMILES CC(=O)N[C@@H](Cc1c[nH]cn1)C(=O)N[C@H](CC(C)C)C(=O)N[C@@H](Cc1ccc(Cl)c(Cl)c1)C(=O)N[C@@H](CCCNC(=N)N)C(=O)Nc1ccc2c(CC(N)=O)cc(=O)oc2c1)
Key: 4.4
